- Tested on: CAMK4
- experimental context: concentration: 1 μM, replicates: in singlicate; n = 1
value kind: %Inh (%)
One number for each entry, in %.

For orientation, consider the following solved cases.
- compound: "CNc1nccc(-c2c(-c3ccc(F)cc3)ncn2CCCN2CCOCC2)n1"
  target of assay: "CAMK4"
  value kind: "%Inh"
  unit: "%"
  value: 27
- compound: "FC(F)(F)c1cc(Nc2nccc(-c3c(-c4ccc(Cl)cc4)nn4ncccc34)n2)ccc1Cl"
  target of assay: "CAMK4"
  value kind: "%Inh"
  unit: "%"
  value: 0
- compound: "Cn1ccc2ncnc(Oc3ccc(NC(=O)Nc4cccnc4)c(Cl)c3)c21"
  target of assay: "CAMK4"
  value kind: "%Inh"
  unit: "%"
  value: 0
- compound: "CSc1ccc(NC2=C(c3ccccc3Cl)C(=O)NC2=O)cc1"
  target of assay: "CAMK4"
  value kind: "%Inh"
  unit: "%"
  value: 0
- compound: "Cc1ccc(NC(=O)c2cccc(C#N)c2)cc1-c1ccc(C(=O)Nc2ccncc2)cc1"
  target of assay: "CAMK4"
  value kind: "%Inh"
  unit: "%"
  value: 0
- compound: "O=c1cc(N2CCOCC2)nc2n(Cc3cccc(Cl)c3)ccn12"
  target of assay: "CAMK4"
  value kind: "%Inh"
  unit: "%"
  value: 0
- compound: "CS(=O)(=O)CCNCc1nc(-c2ccc3ncnc(Nc4ccc(OCc5cccc(F)c5)c(Cl)c4)c3c2)cs1.Cl"
  target of assay: "CAMK4"
  value kind: "%Inh"
  unit: "%"
  value: 0
- compound: "CC(C)(C)c1ccc(-n2cnc3c(N)ncnc32)cc1"
  target of assay: "CAMK4"
  value kind: "%Inh"
  unit: "%"
  value: 0
- compound: "Cn1cc(-c2ccc3c(c2)CCN3C(=O)Cc2cccc(C(F)(F)F)c2)c2c(N)ncnc21"
  target of assay: "CAMK4"
  value kind: "%Inh"
  unit: "%"
  value: 0
- compound: "Clc1cc(Nc2ncnc3cc[nH]c23)ccc1OCc1ccccn1"
  target of assay: "CAMK4"
  value kind: "%Inh"
  unit: "%"
  value: 0

Please state %Inh for every compound in the list that follows.
1. O=C(Nc1ccccc1)Nc1ccc(Oc2ccc3nccn3n2)cc1
2. CNc1nccc(-c2c(-c3ccc(F)cc3)ncn2C2CCN(C)CC2)n1
3. O=C(Nc1ccccc1F)NC1CCN(c2ccnc(Nc3ccc(F)cc3)n2)C1 (stereo not drawn)
4. FC(F)(F)c1ccc(-c2nn3ncccc3c2-c2ccnc(Nc3cccc(C(F)(F)F)c3)n2)cc1
5. Clc1ccc(-c2cc(-c3c[nH]nc3-c3ccccn3)ccn2)cc1
6. CCn1c(-c2ccncc2)nc2cnccc21
7. NC(=O)c1sc(-n2cnc3ccccc32)cc1OCc1ccccc1F

Reply:
[29, 7, 0, 17, 0, 0, 0]

Query: Entry CN1CCC(n2cnc(-c3ccc(F)cc3)c2-c2ccnc(NC3CCNCC3)n2)CC1 , system CAMK4: what %Inh was measured?
Reply: 7

###

- Test system: EPHB4
- experimental context: concentration: 1 μM, replicates: in singlicate; n = 1
Returns 1.0 if the recorded %Inh is greater than or equal to 5%, and 0.0 otherwise.

Field: example entries. Status: answers known.
- molecule: "FC(F)(F)c1cc(Nc2nccc(-c3c(-c4ccc(Cl)cc4)nn4ncccc34)n2)ccc1Cl"
  category: 0.0
- molecule: "FC(F)(F)c1ccc(-c2nn3ncccc3c2-c2ccnc(Nc3cccc(C(F)(F)F)c3)n2)cc1"
  category: 1.0
- molecule: "CN1CCC(n2cnc(-c3ccc(F)cc3)c2-c2ccnc(NC3CCNCC3)n2)CC1"
  category: 0.0
- molecule: "N#Cc1ccc(Oc2ccc(Nc3ncnc4cc[nH]c34)cc2Cl)cc1"
  category: 1.0
- molecule: "OCCOCCn1ccc2ncnc(Nc3ccc(Oc4cccc(Cl)c4)c(Cl)c3)c21"
  category: 0.0

Query: Could you please find out whether CCn1c(-c2ccncc2)nc2cnccc21 has %Inh that meets 5% or exceeds it?
Reply: 1.0

Query: Another molecule to look at: COC(=O)c1c(-c2ccccc2)c2cc(Cl)ccc2c(=O)n1Cc1ccc(S(C)(=O)=O)cc1
Reply: 0.0

Query: Another molecule to look at: NC(=O)c1sc(-n2cnc3ccccc32)cc1OCc1ccccc1F
Reply: 0.0

Query: Another molecule to look at: O=C(c1ccc(-c2cc(-c3c[nH]nc3-c3ccccn3)ccn2)cc1)N1CCCC1
Reply: 1.0

Query: Another molecule to look at: Nc1nc(-c2ccccn2)c(-c2ccnc3ccccc23)s1
Reply: 0.0

Query: Another molecule to look at: Cl.c1ccc(Cn2ccc3cc(Nc4ncnc5ccccc45)ccc32)cc1
Reply: 1.0

###

These records show Kd for TNIK.

Please state Kd for every compound in the list that follows.
1. Fc1ccc(Nc2nccc(-c3c(-c4ccc(Cl)cc4)nn4ncccc34)n2)cc1F
2. Clc1ccc(-c2cc(-c3c[nH]nc3-c3ccccn3)ccn2)cc1
3. Nc1nc(-c2cccnc2)c(-c2ccnc3ccccc23)s1

Reply:
> 10 µM
0.39 µM
> 10 µM

###

- System: AKT1
- experimental context: concentration: 1 μM, replicates: in singlicate; n = 1
Returns class 1 if the recorded %Inh is greater than or equal to 2%, and class 0 otherwise.

Query: Could you please find out whether Fc1ccc(-c2ncn(CCCNCc3ccccc3)c2-c2ccncc2)cc1 has %Inh that meets 2% or exceeds it?
Reply: class 1

Query: Another compound to look at: c1ccc(-c2ccc3c(-c4ccnc(Nc5ccc6c(c5)OCCO6)n4)cnn3n2)cc1
Reply: class 0

Query: Another compound to look at: Fc1ccc(Nc2nccc(-c3c(-c4ccc(Cl)cc4)nn4ncccc34)n2)cc1F
Reply: class 1

###

Record form. Attribute: %Inh. Fill in for each entry.
- System: MAP3K15
- experimental context: concentration: 1 μM, replicates: in singlicate; n = 1
Answers are plain numbers, in %.

For orientation, consider the following solved cases.
- molecule: "Cc1cccc(-c2nc(Nc3ccc4[nH]nnc4c3)c3ccccc3n2)n1 [GW867587]"
  value kind: "%Inh"
  unit: "%"
  value: 0
- molecule: "CS(=O)(=O)CCNCc1nc(-c2ccc3ncnc(Nc4ccc(OCc5cccc(F)c5)c(Cl)c4)c3c2)cs1.Cl [GW583340]"
  value kind: "%Inh"
  unit: "%"
  value: 0
- molecule: "CC(C)(C)c1ccc(-n2cnc3c(N)ncnc32)cc1 [SKF-97263]"
  value kind: "%Inh"
  unit: "%"
  value: 16

Please state %Inh for every molecule in the list that follows.
1. Fc1cccc(COc2ccc(Nc3ncnc4cc[nH]c34)cc2Cl)c1
2. CCC(CC)(CC)n1cnc2c(N)ncnc21 [SKF-97620]
3. COc1ccc(Nc2nccc(N3CCC(NC(=O)c4cccc(NC(C)=O)c4)C3)n2)cc1 (stereo not drawn) [GSK1379732]
4. O=C(Nc1n[nH]c2nc(-c3ccco3)c(Br)cc12)c1ccc(CN2CCCC2)cc1.O=C(O)[C@H](O)[C@@H](O)C(=O)O [SB-742352]

Reply:
50
24
0
0

Please state %Inh for every molecule in the list that follows.
1. OCCOCCn1ccc2ncnc(Nc3ccc(Oc4cccc(Cl)c4)c(Cl)c3)c21
2. O=C(Nc1ccccc1)Nc1ccc(Oc2ccc3nccn3n2)cc1

Reply:
1. 0
2. 0

###

- System: RIPK2
- experimental context: concentration: 1 μM, replicates: in singlicate; n = 1
// boundary case: %Inh equal to 7% maps to -1; strictly smaller maps to 1

- molecule: "Cl.Cn1ccc(-c2cccc(Nc3ccnc4cc(-c5nccs5)ccc34)c2)n1 [GW525701]"
  category: -1

Query: hey, is %Inh for O=C(Nc1ccccc1F)NC1CCN(c2ccnc(Nc3ccc(F)cc3)n2)C1 (centres unmarked) [GSK1379722] lower than 7% or not?
Reply: 1

Query: Another molecule to look at: Oc1ccc2ncnc(Nc3ccc(OCc4ccccc4)cc3)c2c1 [GI262866]
Reply: -1

Query: Another molecule to look at: COc1ccc(Nc2nccc(N3CCC(NC(=O)Nc4ccc5c(c4)OCO5)C3)n2)cc1 (centres unmarked) [GSK1379745]
Reply: 1

Query: Another molecule to look at: Cc1cc(N2CCC(NS(=O)(=O)c3ccc(F)cc3)CC2)nc(Nc2cccc(C#N)c2)n1.O=C(O)C(F)(F)F [GSK1653537]
Reply: 1

Query: Another molecule to look at: COc1ccc(NC(=O)Nc2ccc(C)c(-c3ccc(C(=O)Nc4ccncc4)cc3)c2)cc1 [GSK1398475]
Reply: 1

###

- Test system: SYK
- experimental context: concentration: 1 μM, replicates: in singlicate; n = 1
value kind: %Inh

For orientation, consider the following solved cases.
- compound: "O=c1cc(N2CCOCC2)nc2n(Cc3cccc(Cl)c3)ccn12"
  %Inh: "5%"
- compound: "Oc1ccc2ncnc(Nc3ccc(OCc4ccccc4)cc3)c2c1"
  %Inh: "14%"
- compound: "O=C(c1ccc(-c2cc(-c3c[nH]nc3-c3ccccn3)ccn2)cc1)N1CCCC1"
  %Inh: "20%"
- compound: "C[C@@H]1CCN(C(=O)CO)C[C@@H]1N(C)c1ncnc2[nH]ccc12"
  %Inh: "3%"
- compound: "CS(=O)(=O)CCNCc1nc(-c2ccc3ncnc(Nc4ccc(OCc5cccc(F)c5)c(Cl)c4)c3c2)cs1.Cl"
  %Inh: "18%"
- compound: "Clc1cc(Nc2ncnc3cc[nH]c23)ccc1OCc1ccccn1"
  %Inh: "8%"

Please state %Inh for every compound in the list that follows.
1. OCCOCCn1ccc2ncnc(Nc3ccc(Oc4cccc(Cl)c4)c(Cl)c3)c21
2. COc1ccc(Nc2nccc(N3CCC(NC(=O)Nc4ccc5c(c4)OCO5)C3)n2)cc1 (centres unmarked)
3. O=C(NCCCN1CCCC1=O)c1cnc(NCc2cc(Cl)ccc2Cl)nc1NC1CCNCC1
4. Cl.Fc1ccccc1COc1ccc(Nc2ncnc3ccc(-c4nnc(C(F)(F)F)o4)cc23)cc1Cl
5. N#Cc1ccc(Oc2ccc(Nc3ncnc4cc[nH]c34)cc2Cl)cc1

Reply:
26%
40%
8%
0%
13%
